# measurement-target: P2X7 receptor (Homo sapiens)
# Construct: host or cells: THP-1 cells differentiated with LPS and IFN-γ
# assay-notes: Alternate method for IL-1β release assay (differentiated THP-1 cells, BzATP-stimulated, ELISA)
# Type: cell-based
# condition-description: P2X7; 0.3 μM compound (asterisk symbols); read-out: IL-1β % inhib @ 0.3 μM
quantity: inhibition at 0.3 µM

Example cases with answers are listed next.
CC(C)S(=O)(=O)N1CCc2c(ncnc2NCC23CC4CC(CC(C4)C2)C3)C1 [Compound 70] = 50 to 75%
O=C(COc1ccc(Cl)cc1)N1CCc2c(ncnc2NCC23CC4CC(CC(C4)C2)C3)C1 [Compound 119] = 25 to 50%
O=C(c1cccc(C(F)(F)F)c1)N1CCc2c(ncnc2NCC23CC4CC(CC(C4)C2)C3)C1 [Compound 89] = 25 to 50%
O=C(COCc1ccccc1)N1CCc2c(ncnc2NCC23CC4CC(CC(C4)C2)C3)C1 [Compound 111] = > 75%
O=C(c1c(F)cccc1F)N1CCc2c(ncnc2NCC23CC4CC(CC(C4)C2)C3)C1 [Compound 102] = 50 to 75%
COc1cccc(CN2CCc3c(ncnc3NCC34CC5CC(CC(C5)C3)C4)C2)c1 [Compound 195] = > 75%
Clc1ccc(CN2CCc3c(ncnc3NCC34CC5CC(CC(C5)C3)C4)C2)c(Cl)c1 [Compound 181] = 25 to 50%
O=C(CCc1ccccc1)N1CCc2c(ncnc2NCC23CC4CC(CC(C4)C2)C3)C1 [Compound 103] = > 75%

inhibition at 0.3 µM for O=C(c1ccc(C(F)(F)F)cc1)N1CCc2c(ncnc2NCC23CC4CC(CC(C4)C2)C3)C1 [Compound 98] ?
25 to 50%

Fill blank: measured inhibition at 0.3 µM of the compound COc1ccc(C(=O)N2CCc3c(ncnc3NCC34CC5CC(CC(C5)C3)C4)C2)cc1OC [Compound 159] is ____.
> 75%

Endpoint output: inhibition at 0.3 µM of O=C(c1ccc(C(F)(F)F)cc1F)N1CCc2c(ncnc2NCC23CC4CC(CC(C4)C2)C3)C1 [Compound 121] . Value?
25 to 50%

Need inhibition at 0.3 µM, item O=S(=O)(c1ccc(Cl)cc1F)N1CCc2c(ncnc2NCC23CC4CC(CC(C4)C2)C3)C1 [Compound 59]
25 to 50%

Would you kindly share the measured inhibition at 0.3 µM for O=S(=O)(c1ccc2ccccc2c1)N1CCc2c(ncnc2NCC23CC4CC(CC(C4)C2)C3)C1 [Compound 6] ?
0 to 25%

* * *

# measurement-target: P2X7 receptor (Homo sapiens, UniProt Q99572)
# Construct: host or cells: THP-1 cells differentiated with LPS and IFN-γ
# Sequence (Q99572 whole entry): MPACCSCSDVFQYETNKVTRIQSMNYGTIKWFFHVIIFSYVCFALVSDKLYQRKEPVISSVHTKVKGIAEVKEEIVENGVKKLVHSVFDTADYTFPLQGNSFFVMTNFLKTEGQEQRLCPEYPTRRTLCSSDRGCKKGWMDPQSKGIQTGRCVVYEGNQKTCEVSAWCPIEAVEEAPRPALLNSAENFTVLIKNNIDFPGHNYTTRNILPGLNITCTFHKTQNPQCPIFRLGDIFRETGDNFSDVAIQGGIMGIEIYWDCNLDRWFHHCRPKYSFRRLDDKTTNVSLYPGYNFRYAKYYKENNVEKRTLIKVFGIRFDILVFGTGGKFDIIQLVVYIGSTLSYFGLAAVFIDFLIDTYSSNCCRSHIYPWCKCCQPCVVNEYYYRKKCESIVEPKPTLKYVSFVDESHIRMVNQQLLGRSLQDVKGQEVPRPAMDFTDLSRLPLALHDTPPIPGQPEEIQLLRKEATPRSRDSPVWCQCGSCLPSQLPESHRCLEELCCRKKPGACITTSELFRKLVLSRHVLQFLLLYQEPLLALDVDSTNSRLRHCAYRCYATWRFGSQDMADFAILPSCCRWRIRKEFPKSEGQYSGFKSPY
# assay-notes: Alternate method for IL-1β release assay (differentiated THP-1 cells, BzATP-stimulated, ELISA)
# Format: cell-based
# condition-description: P2X7; 0.1 μM compound (symbols + to ++++); read-out: IL-1β % inhib @ 0.1 μM
quantity: inhibition at 0.1 µM

See these solved cases before continuing.
O=C(OCc1ccco1)N1CCc2c(ncnc2NCC23CC4CC(CC(C4)C2)C3)C1 [Compound 336] = > 75%
O=C(OCc1cscn1)N1CCc2c(ncnc2NCC23CC4CC(CC(C4)C2)C3)C1 [Compound 331] = 0 to 25%
N#Cc1cccc(C(=O)N2CCc3c(ncnc3NCC34CC5CC(CC(F)(C5)C3)C4)C2)c1 [Compound 333] = 25 to 50%
O=C(OCc1cnccn1)N1CCc2c(ncnc2NCC23CC4CC(CC(C4)C2)C3)C1 [Compound 348] = 25 to 50%
Fc1ccc(CN2CCc3c(ncnc3NCC34CC5CC(CC(F)(C5)C3)C4)C2)c(F)c1 [Compound 323] = 50 to 75%
CS(=O)(=O)c1ccc(COC(=O)N2CCc3c(ncnc3NCC34CC5CC(CC(C5)C3)C4)C2)cc1 [Compound 329] = 50 to 75%
O=C(OCc1ccccn1)N1CCc2c(ncnc2NCC23CC4CC(CC(C4)C2)C3)C1 [Compound 342] = 0 to 25%
c1cc(CN2CCc3c(ncnc3NCC34CC5CC(CC(C5)C3)C4)C2)c2c(c1)OCO2 [Compound 207] = > 75%

What inhibition at 0.1 µM value was documented for this compound, O=C(OCC1CCCO1)N1CCc2c(ncnc2NCC23CC4CC(CC(C4)C2)C3)C1 (centres unmarked) [Compound 341] ?
50 to 75%

Entry O=C(c1cccnc1)N1CCc2c(ncnc2NCC23CC4CC(CC(O)(C4)C2)C3)C1 [Compound 350] has what inhibition at 0.1 µM?
25 to 50%

Request the reported inhibition at 0.1 µM associated with Cc1nn(-c2ccccc2)nc1COC(=O)N1CCc2c(ncnc2NCC23CC4CC(CC(C4)C2)C3)C1 [Compound 345]
25 to 50%

For the compound O=C(OCc1cccnc1)N1CCc2c(ncnc2NCC23CC4CC(CC(C4)C2)C3)C1 [Compound 328] , what inhibition at 0.1 µM is on record?
50 to 75%

Field request: inhibition at 0.1 µM | item: O=C(OCc1ncoc1-c1ccccc1)N1CCc2c(ncnc2NCC23CC4CC(CC(C4)C2)C3)C1 [Compound 346]
0 to 25%

Which value of inhibition at 0.1 µM has been reported for O=C(OCc1ccccc1Cl)N1CCc2c(ncnc2NCC23CC4CC(CC(C4)C2)C3)C1 [Compound 339] in the records?
> 75%

Query: inhibition at 0.1 µM; subject: O=C(COc1ccc(OC(F)(F)F)cc1)N1CCc2c(ncnc2NCC23CC4CC(CC(C4)C2)C3)C1 [Compound 251]
0 to 25%

Item O=C(C1CCOC1)N1CCc2c(ncnc2NCC23CC4CC(CC(C4)C2)C3)C1 (centres unmarked) [Compound 249] has what recorded inhibition at 0.1 µM?
0 to 25%

What measured inhibition at 0.1 µM goes with O=C(OCc1c(F)cccc1F)N1CCc2c(ncnc2NCC23CC4CC(CC(C4)C2)C3)C1 [Compound 338] ?
> 75%

Cited source: patent US20100022531A1
